B1: RTP4 (parent)
chain: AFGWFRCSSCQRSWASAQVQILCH

Variants of: B1
measurement_description: protein stability index of a GFP-peptide fusion (GPS, HEK-293T) (PSI 1-6); higher = more stable;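 note: lentivirally expressed fusions sorted by FACS into six bins by GFP to DsRed ratio, PSI derived from sequencing read proportions per bin multiplied by bin number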
measurement_setup: c terminus: a fixed tail appended
Response key: 1.0 means protein stability index >= 2; 0.0 means protein stability index < 2.

Please indicate if the recorded protein stability index for AFGWFRCSSCQRSWASAQVQILCV [H24V] meets or exceeds 2. 1.0

Can you handle AFGWFRCSYCQRSWASAQVQILCH [S9Y] next? 1.0

Can you handle AFGWFRCSSCQRSWAEAQVQILCH [S16E] next? 1.0

Can you handle AFGWFRCSSCQRSWAWAQVQILCH [S16W] next? 0.0

Can you handle AFGWFRCSSCQRSWAFAQVQILCH [S16F] next? 1.0

Can you handle AFGWFRCSSCQRSWVSAQVQILCH [A15V] next? 0.0

Can you handle AFGWFRCSSCQRSWASAQVQILMH [C23M] next? 1.0

Can you handle AFGWFRCSSCQRSWASAQYQILCH [V19Y] next? 1.0

Can you handle AFGWFRCSSGQRSWASAQVQILCH [C10G] next? 1.0

Can you handle AFGWFRCSSCQRSWASAQVVILCH [Q20V] next? 1.0

Can you handle AFGWFRCSSCQRIWASAQVQILCH [S13I] next? 0.0

Can you handle AFGWFRCSSCPRSWASAQVQILCH [Q11P] next? 1.0

Can you handle AFGWFRCSSCQRSWASHQVQILCH [A17H] next? 1.0

Can you handle AFGWFRCSSCQRSWASAQVPILCH [Q20P] next? 1.0

Can you handle AFGWFRCSSCQRSWASVQVQILCH [A17V] next? 1.0

Can you handle AFGWFRKSSCQRSWASAQVQILCH [C7K] next? 1.0

Can you handle AFGWFRCSSCQRSLASAQVQILCH [W14L] next? 0.0

Can you handle AFGWFRCSSCQRSPASAQVQILCH [W14P] next? 1.0

Can you handle AFGWFRCSSCQRSWASAQVQSLCH [I21S] next? 1.0

Can you handle AFGWFRISSCQRSWASAQVQILCH [C7I] next? 1.0

Can you handle AFGWFRCSSCQRSWASAQVQILCR [H24R] next? 1.0

Can you handle AFGWFRCSSCQRSWADAQVQILCH [S16D] next? 1.0

Can you handle AFGWFICSSCQRSWASAQVQILCH [R6I] next? 1.0

Can you handle AFGWFRCSSCQRSWASAQVQILKH [C23K] next? 1.0

Can you handle AFGWFRCSSNQRSWASAQVQILCH [C10N] next? 1.0

Can you handle AFGWFRCSSCQRSWASYQVQILCH [A17Y] next? 1.0

Can you handle AFGWFRCSSCQRSWASAQIQILCH [V19I] next? 1.0

Can you handle AFGWFQCSSCQRSWASAQVQILCH [R6Q] next? 1.0

Can you handle AFGWFRCSSCQRSWASAQVQINCH [L22N] next? 1.0

Can you handle AFGWFRCSSCQRSWASIQVQILCH [A17I] next? 1.0

Can you handle AFGWFRYSSCQRSWASAQVQILCH [C7Y] next? 1.0

Can you handle AFGWFRCSSCQRSWASAQVQIMCH [L22M] next? 0.0

Can you handle KFGWFRCSSCQRSWASAQVQILCH [A1K] next? 1.0

Can you handle AFGWFRCSSCQRSWASAQVSILCH [Q20S] next? 1.0

Can you handle AFGWFRCSSCQRSWASMQVQILCH [A17M] next? 0.0

Can you handle AFGWFRCSSCQRQWASAQVQILCH [S13Q] next? 1.0

Can you handle AFGWFRCSSCQRSWCSAQVQILCH [A15C] next? 1.0

Can you handle AFNWFRCSSCQRSWASAQVQILCH [G3N] next? 1.0

Can you handle AFGLFRCSSCQRSWASAQVQILCH [W4L] next? 0.0

Can you handle AFGWFRCSSCQRSWASAQVQILCN [H24N] next? 1.0

Can you handle AFGWFRCSSCQRPWASAQVQILCH [S13P] next? 1.0

Can you handle AFGGFRCSSCQRSWASAQVQILCH [W4G] next? 1.0

Can you handle CFGWFRCSSCQRSWASAQVQILCH [A1C] next? 1.0

Can you handle AFGWFRCSSCQRMWASAQVQILCH [S13M] next? 1.0

Can you handle AFGWFRESSCQRSWASAQVQILCH [C7E] next? 1.0

Can you handle AFGWFRCSSCQRSWASAQVQQLCH [I21Q] next? 0.0
